Reference source: ChEMBL document CHEMBL1124539

EXPERIMENTAL SYSTEM: Estrogen receptor (Rattus norvegicus) (UniProt P06211+Q62986)
Entries and their Uterotrophic effect values follow.
MEASURED PROPERTY: Uterotrophic effect

C#C[C@]1(O)CC[C@H]2[C@@H]3[C@H](O)Cc4cc(O)ccc4[C@H]3CC[C@@]21C : 0.1
CC[C@H]1CC[C@H]2[C@@H]3CCc4cc(O)ccc4[C@H]3CC[C@]12C (stereo in doubt; 8b) : 1
CC[C@H]1CC[C@H]2[C@@H]3CCc4cc(O)ccc4[C@H]3[C@@H](O)C[C@]12C : 0.04
C#C[C@]1(O)CC[C@H]2[C@@H]3CCc4cc(O)ccc4[C@H]3[C@@H](O)C[C@@]21C : 5

* * *

Below, each entry is listed alongside its reported Antifertility potency.
System: Rattus norvegicus
EXPERIMENTAL PROTOCOL: In vivo antifertility potency in rats at 200 ug/kg/day
Format: functional
MEASURED PROPERTY: Antifertility potency

CO/N=C1\CC[C@H]2[C@@H]3CCc4cc(O)ccc4[C@H]3CC[C@]12C : 4
C[C@]12CC[C@@H]3c4ccc(O)cc4CC[C@H]3[C@@H]1CC/C2=N\O : 4

* * *

Here's a batch of compounds along with measured Estrogenic potency for Estrogen receptor (Rattus norvegicus) (UniProt P06211+Q62986).
MEASURED PROPERTY: Estrogenic potency

CC(=O)[C@H]1CC[C@H]2[C@@H]3CCc4cc(O)ccc4[C@H]3CC[C@]12C : 0.01
CCCC[C@H]1CC[C@H]2[C@@H]3CCc4cc(O)ccc4[C@H]3CC[C@]12C : 0.4
COc1ccc2c(c1)CC[C@@H]1[C@@H]2CC[C@@]2(C)[C@H]1CC[C@@]2(O)c1ccccc1 : 0.69
CC/C=C1\CC[C@H]2[C@@H]3CCc4cc(O)ccc4[C@H]3CC[C@]12C : 0.4
CCC[C@H]1CC[C@H]2[C@@H]3CCc4cc(O)ccc4[C@H]3CC[C@]12C : 0.8
C=C1C[C@]2(C)[C@@H](CC)CC[C@H]2[C@@H]2CCc3cc(O)ccc3[C@@H]12 : 64
C/C=C1\CC[C@H]2[C@@H]3CCc4cc(O)ccc4[C@H]3CC[C@]12C : 0.3
CC[Si](C#C[C@]1(O)CC[C@H]2[C@@H]3CCc4cc(O)ccc4[C@H]3CC[C@@]21C)(CC)CC : 37
C#C[C@]1(O)CC[C@H]2[C@@H]3CCc4cc(O)ccc4[C@H]3[C@@H](O)C[C@@]21C : 120
C[C@]12CC[C@@H]3c4ccc(O)cc4CC[C@H]3[C@@H]1CC/C2=N\O : 0.28
C#C[C@H]1CC[C@H]2[C@@H]3CCc4cc(O)ccc4[C@H]3CC[C@]12C : 0.07
CC[C@H]1CC[C@H]2[C@@H]3[C@H](O)Cc4cc(O)ccc4[C@H]3CC[C@]12C : 0.04
C=C[C@H]1CC[C@H]2[C@@H]3CCc4cc(O)ccc4[C@H]3CC[C@]12C : 0.26
CCC/C=C1\CC[C@H]2[C@@H]3CCc4cc(O)ccc4[C@H]3CC[C@]12C : 0.2
C[C@]12CC[C@@H]3c4ccc(O)cc4CC[C@H]3[C@@H]1CC/C2=C\C=O : 0.05
C=C1CCC2C3C=Cc4cc(O)ccc4C3CCC12C (configuration not stated) : 0.04
CC[Si](CC)(CC)CC[C@H]1CC[C@H]2[C@@H]3CCc4cc(O)ccc4[C@H]3CC[C@]12C : 0.27
